Assay System: T1, cynomolgus TREM2-Fc (cynomolgus monkey, UniProt A0A2K5UY34 49-204)
T1 construct: also called cyno TREM2; not shown: Fc part
T1 sequence: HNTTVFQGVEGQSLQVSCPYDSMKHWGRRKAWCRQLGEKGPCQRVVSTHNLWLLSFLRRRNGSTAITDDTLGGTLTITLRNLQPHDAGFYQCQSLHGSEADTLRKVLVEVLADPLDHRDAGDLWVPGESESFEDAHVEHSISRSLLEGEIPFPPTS
Test Summary: SPR (Biacore T200), 37 C; TREM2-Fc on anti-human IgG1 Fc chip, Fab in solution
Parameter: kon (M⁻¹ s⁻¹)

binder="Para.09 Fab with the 3.27H7 light chain (Fab, V domains shown, Fab fragment; also called Para.09 (3.27H7); Para.09-L27H7) VH: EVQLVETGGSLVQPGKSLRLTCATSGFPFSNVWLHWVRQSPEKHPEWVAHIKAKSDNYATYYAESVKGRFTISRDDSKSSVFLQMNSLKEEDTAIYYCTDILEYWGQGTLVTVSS VL: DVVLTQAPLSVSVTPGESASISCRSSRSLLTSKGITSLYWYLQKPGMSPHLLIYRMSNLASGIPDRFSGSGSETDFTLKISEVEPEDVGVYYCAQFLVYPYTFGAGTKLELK" val=4.8e+06
binder="Para.09 Fab with the 3.50G1 light chain (Fab, V domains shown, also called Para.09 (3.50G1)) VH: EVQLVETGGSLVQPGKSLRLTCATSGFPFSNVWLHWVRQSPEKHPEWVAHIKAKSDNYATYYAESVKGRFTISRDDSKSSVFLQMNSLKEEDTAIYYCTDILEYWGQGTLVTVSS VL: DTVLTQAPLSVSVTPGESASISCRSNKSLLGIRDITSLYWFLQKPGKSPQLLIYRMSNLASGVPDRFSGSGSETDFTLKISEVETEDVGVYYCAQFLRYPYTFGPGTKLELQ" val=3.9e+06
binder="Para.09 Fab with the 3.18E5 light chain (Fab, V domains shown, also called Para.09 (3.18E5)) VH: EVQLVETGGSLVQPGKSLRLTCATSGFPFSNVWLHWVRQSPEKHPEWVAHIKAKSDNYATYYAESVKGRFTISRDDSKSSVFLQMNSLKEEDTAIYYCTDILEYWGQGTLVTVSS VL: DTVLTQAPLSVSVTPGESASISCRSNKSLLGIRDITSLYWYLQKPGKSPQLLIYRMSNLASGVPDRFSGSGSETDFTLKISEVETEDVGVYYCAQFLRYPYTFGPGTKLELK" val=3.8e+06
